- measured target: SARS-CoV-2 3CL protease (Severe acute respiratory syndrome coronavirus 2, UniProt P0DTD1)
- measurement protocol: biochemical
- condition context: compound 4 analogs
observable: activity against SARS-CoV-2 3CL protease (in words)

molecule	experimental value
CCOC(=O)/C=C/[C@H](C[C@@H]1CCNC1=O)NC(=O)[C@H](CC(C)C)NC(=O)OC(C)(C)C [AZVIII-33B]	inactive
CC(C)C[C@H](NC(=O)OC(C)(C)C)C(=O)N[C@H](CO)C[C@@H]1CCNC1=O [AZVIII-37A]	inactive

###

- measured target: UniProt:P0DTD1
- Assay type: biochemical
- condition context: 100 µM compound
Reported Inhibition at 100 µM values are given for each entry in this list.
Number only, in %; omit the unit.

Problem: Indicate its recorded Inhibition at 100 µM; the molecule in question is `O=C(CCl)COc1ccc(Cl)cc1`
Result: 100

Problem: Indicate its recorded Inhibition at 100 µM; the molecule in question is `O=C(CCl)N1CCN(c2ccccc2[N+](=O)[O-])CC1`
Result: 90

Problem: Indicate its recorded Inhibition at 100 µM; the molecule in question is `Cc1ccc(CNC(=O)n2ccnc2)cc1`
Result: 100

Problem: Indicate its recorded Inhibition at 100 µM; the molecule in question is `COC(C)(C)CNC(=O)c1cccnc1S`
Result: 80

Problem: Indicate its recorded Inhibition at 100 µM; the molecule in question is O=C(NCC1CCCCC1O)c1cccnc1S (centres unmarked)
Result: 100

###

- measured target: SARS-CoV-2 3CL protease (Severe acute respiratory syndrome coronavirus 2, UniProt P0DTD1)
- Assay type: biochemical
- condition context: 10 µM compound
# cutoff 20% applies to Inhibition at 10 µM; >= gives 1.0, < gives 0.0

compound	category label
O=C(NCCC1=CCOCC1)c1cccnc1S	0.0

Problem: Is reported Inhibition at 10 µM greater than or equal to 20% here: `OCCc1cnc(S)nc1`
Result: 0.0

Problem: Is reported Inhibition at 10 µM greater than or equal to 20% here: `N#Cc1ccnc(S)c1`
Result: 0.0

Problem: Is reported Inhibition at 10 µM greater than or equal to 20% here: `O=C(NCCc1ccc(F)cc1)n1ccnc1`
Result: 1.0

Problem: Is reported Inhibition at 10 µM greater than or equal to 20% here: `O=C(CCl)N1CCc2[nH]c3ccccc3c2C1`
Result: 1.0

Problem: Is reported Inhibition at 10 µM greater than or equal to 20% here: O=C(NCCC(O)c1ccccc1)c1cccnc1S (stereo not drawn)
Result: 0.0

Problem: Is reported Inhibition at 10 µM greater than or equal to 20% here: `N#Cc1ccc(S)nc1`
Result: 0.0

Problem: Is reported Inhibition at 10 µM greater than or equal to 20% here: `CN(c1ccc(C(=O)CCl)cc1)S(C)(=O)=O`
Result: 1.0

Problem: Is reported Inhibition at 10 µM greater than or equal to 20% here: `NS(=O)(=O)c1ccc(S)nc1`
Result: 0.0

Problem: Is reported Inhibition at 10 µM greater than or equal to 20% here: CC(C)OC1CCC(NC(=O)c2cccnc2S)CC1 (stereo not drawn)
Result: 0.0

Problem: Is reported Inhibition at 10 µM greater than or equal to 20% here: `O=C(CCl)c1ccc(F)c(C(=O)CCl)c1`
Result: 0.0

Problem: Is reported Inhibition at 10 µM greater than or equal to 20% here: `Cc1cnccc1CCNC(=O)c1cccnc1S`
Result: 0.0

Attribution: paper PMC8989888
